# Tested on: THP1
# Experiment notes: Proliferation assay (CellTiter Glo), THP1
# Format: cell-based
# Assay setup: Homo sapiens, THP-1, relative EC50, 96 hours, read-out: Re EC50
Measured endpoint: EC50 (nM)
Write the value in nM as a bare number.

In: Give reported EC50 for CC(=O)O[C@@]12C[C@@H](C)[C@]3(O)C4C=C(C)C(=O)[C@@]4(O)CC(CO)=C[C@H]3[C@@H]1C2(C)C (stereo partly shown) [Compound K-101A, Prostratin] (THP1)
Out: 300
